Target: T1, recombinant human FcεRIa extracellular region-mouse IgG2a Fc-6×His fusion protein (human, UniProt P12319 26-205)
T1 chain (part 1 of 2): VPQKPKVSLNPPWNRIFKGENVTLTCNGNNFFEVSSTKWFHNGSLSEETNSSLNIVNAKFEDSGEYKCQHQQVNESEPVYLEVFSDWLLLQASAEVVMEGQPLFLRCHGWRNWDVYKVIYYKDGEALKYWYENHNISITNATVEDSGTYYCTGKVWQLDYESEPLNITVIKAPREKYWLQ
T1 chain (part 2 of 2): HHHHHH
Assay: BLI
Reported pKd values for the following binders.
Interpret pKd as the negative base-10 log of the concentration measured in mol/L.

Use these answered entries as a reference point.
Binder	pKd
binding protein DB365 (designed binder) TKKCADSNPRGVSVFLFPPKPKDTLMISRTPEVTCVVVDLAPSKGTVKFNWYVDGVEVHNAKTKPREKQRNGTLTVVSVLTVLHQDWLNGKEYKCKVTHPHLPRALEKTISKAKGQPREPQVYTLPPSREEMTKNQVSLTCLVKGFYPSDIAVEWESNGQPENNYKTTPPVLDSDGSFFLYSKLTVDKSRWQQGNVFSCSVMHEALHNHYTQKSLSLSPGK	9.14
binding protein DB366 (designed binder) CADSNPRGVSVFLFPPKPKDTLMISRTPEVTCVVVDLAPSKGTVKFNWYVDGVEVHNAKTKPREKQRNGTLTVVSVLTVLHQDWLNGKEYKCKVTHPHLPRALEKTISKAKGQPREPQVYTLPPSREEMTKNQVSLTCLVKGFYPSDIAVEWESNGQPENNYKTTPPVLDSDGSFFLYSKLTVDKSRWQQGNVFSCSVMHEALHNHYTQKSLSLSPGK	8.77
binding protein DB-B64 (designed binder) CPAPELLGGPSVFLFPPKPKDTLMISRTPEVTCVVVDLAPSKGTVKFNWYVDGVEVHNAKTKPREKQRNGTLTVVSVLTVLHQDWLNGKEYKCKVTHPHLPRALEKTISKAKGQPREPQVYTLPPSREEMTKNQVSLTCLVKGFYPSDIAVEWESNGQPENNYKTTPPVLDSDGSFFLYSKLTVDKSRWQQGNVFSCSVMHEALHNHYTQKSLSLSPGK	8.33

Now consider the entry below.
Ask: Report pKd for binding protein DB364 (designed binder) DFTPPTVKILQSSCDGGGHFPPTIQLLCLVSGYTPGTINITWLEDGQVMDVDLSTASTTQEGELASTQSELTLSQKHWLSDRTYTCQVTYQGHTFEDSTKKCADSNPRGVSVFLFPPKPKDTLMISRTPEVTCVVVDLAPSKGTVKFNWYVDGVEVHNAKTKPREKQRNGTLTVVSVLTVLHQDWLNGKEYKCKVTHPHLPRALEKTISKAKGQPREPQVYTLPPSREEMTKNQVSLTCLVKGFYPSDIAVEWESNGQPENNYKTTPPVLDSDGSFFLYSKLTVDKSRWQQGNVFSCSVMHEALHNHYTQKSLSLSPGK please.
Reply: 8.75
